Values compiled from patent US6638943B2.

Molecular target: human α2a-AR (Homo sapiens)
Construct: expressed in transfected cells
Sequence (P08913 whole entry): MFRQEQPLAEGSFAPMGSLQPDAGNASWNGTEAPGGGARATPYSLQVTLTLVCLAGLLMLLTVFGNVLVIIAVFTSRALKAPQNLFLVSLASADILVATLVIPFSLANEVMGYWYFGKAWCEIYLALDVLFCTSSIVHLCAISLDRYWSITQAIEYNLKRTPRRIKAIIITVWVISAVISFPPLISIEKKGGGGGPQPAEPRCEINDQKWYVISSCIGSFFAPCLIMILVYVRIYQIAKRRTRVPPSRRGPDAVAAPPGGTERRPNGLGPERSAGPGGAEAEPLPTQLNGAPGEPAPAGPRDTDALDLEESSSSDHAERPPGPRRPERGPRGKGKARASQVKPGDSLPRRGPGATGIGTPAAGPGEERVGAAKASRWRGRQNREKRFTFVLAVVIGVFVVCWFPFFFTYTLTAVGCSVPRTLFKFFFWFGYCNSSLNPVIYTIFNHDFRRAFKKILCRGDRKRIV
Test: [3H]Rauwolscine equilibrium competition binding, human α2a-AR expressed in CHO cells
Conditions: human α2a-AR in CHO cells; [3H]rauwolscine 2.54 nM; mean ± SEM of four to nine experiments; read-out: Ki = SEM (nM) α2a-AR
MEASURE: Ki (nM)

{"COMPOUND": "O=C(NCCCCCCCCCCNC(=O)[C@@H]1[C@H]2C[C@H]3c4[nH]c5ccccc5c4CCN3C[C@@H]2CC[C@@H]1O)[C@@H]1[C@H]2C[C@H]3c4[nH]c5ccccc5c4CCN3C[C@@H]2CC[C@@H]1O [Compound 3i]", "Ki [nM]": 0.39}
{"COMPOUND": "O=C(NCCCCCCNC(=O)[C@@H]1[C@H]2C[C@H]3c4[nH]c5ccccc5c4CCN3C[C@@H]2CC[C@@H]1O)[C@@H]1[C@H]2C[C@H]3c4[nH]c5ccccc5c4CCN3C[C@@H]2CC[C@@H]1O [Compound 3e]", "Ki [nM]": 1.35}

P: O=C(NCCNC(=O)[C@@H]1[C@H]2C[C@H]3c4[nH]c5ccccc5c4CCN3C[C@@H]2CC[C@@H]1O)[C@@H]1[C@H]2C[C@H]3c4[nH]c5ccccc5c4CCN3C[C@@H]2CC[C@@H]1O [Compound 3a]
Q: O=C(NCCCCCCCCNC(=O)[C@@H]1[C@H]2C[C@H]3c4[nH]c5ccccc5c4CCN3C[C@@H]2CC[C@@H]1O)[C@@H]1[C@H]2C[C@H]3c4[nH]c5ccccc5c4CCN3C[C@@H]2CC[C@@H]1O [Compound 3g]
Query :: Of P and Q , whose reported Ki is numerically smaller? Indicate which entry you chose by stating its label.
Result :: Q
(Q: 0.76 nM, P: 26.4 nM)
